Tested on: 941728-121-R-J1-PDC complex spheroid viability;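 further: spheroids exposed to compounds for 7 days before readout; 100% = DMSO vehicle control viability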
Assay: Anticancer human tumor 941728-121-R-J1-PDC patient-derived lung adenocarcinoma cell line growth inhibition [RAS]
Conditions: second compound 0.1 µM; first compound 0.1 µM; stronger effect = lower value
reported-property: viability, T/C (%)
Give bare numbers, in %.

Take a look at these entries with their results.
>>> value("Nc1ccn(C2OC(CO)C(O)C2(F)F)c(=O)n1 (stereo not drawn) + C=CC(=O)N1CCN(c2nc(OCC3CCCN3C)nc3c(F)c(-c4nc(N)cc(C)c4C(F)(F)F)c(Cl)cc23)C(C)C1")
14.1
>>> value("CCN1CCN(Cc2ccc(Nc3ncc(F)c(-c4cc(F)c5nc(C)n(C(C)C)c5c4)n3)nc2)CC1 + C#Cc1c(F)ccc2cc(O)cc(-c3ncc4c(N5CC6CCC(C5)N6)nc(OCC56CCCN5CC(F)C6)nc4c3F)c12")
46.7

The measured viability, T/C associated with Cc1nc(N2CCC3(CC2)COC(C)C3N)c(CO)nc1Sc1ccnc(N)c1Cl (stereo not drawn) + C=CC(=O)N1CCN(c2nc(OCC3CCCN3C)nc3c(F)c(-c4nc(N)cc(C)c4C(F)(F)F)c(Cl)cc23)C(C)C1 reads 16.7
